test system: cell lines from the Cancer Cell Line Encyclopedia (CCLE); experiment: High-throughput cell viability assay, CCLE cell line panel (n = 356); assay type: cell-based, human; details: Homo sapiens, SNU-182, SNU-182, TP53 MUT
Assay metric: IC50

Q: # value lookup — system cell lines from the Cancer Cell Line Encyclopedia (CCLE), readout IC50, item "COc1cc2c(cc1OC(C)C)[C@H](c1ccc(Cl)cc1)N(c1ccc(N(C)C[C@H]3CC[C@H](N4CCNC(=O)C4)CC3)cc1)C(=O)C2"
A: > 8 µM

###

assay: PK parameters in preclinical species; assay type: in vivo; details: in vivo, iv; Dog; single dose 0.1 mg/kg i.v. or 0.3 mg/kg p.o.
Assay metric: clearance (mL/min/kg)
Give the value, in units of mL/min/kg, as a plain number.

Q: // query clearance value for entry "COc1cc2c(cc1OC(C)C)[C@H](c1ccc(Cl)cc1)N(c1ccc(N(C)C[C@H]3CC[C@H](N4CCN(C)C(=O)C4)CC3)cc1)C(=O)C2"
A: 3

Q: Request the reported clearance associated with "COc1cc2c(cc1OC(C)C)[C@H](c1ccc(Cl)cc1)N(c1ccc(N(C)C[C@H]3CC[C@H](N4CCNC(=O)C4)CC3)cc1)C(=O)C2"
A: 3

###

system: cell lines from the Cancer Cell Line Encyclopedia (CCLE); test: High-throughput cell viability assay, CCLE cell line panel (n = 356); type: cell-based, human; conditions: Homo sapiens, LK-2, TP53 MUT
Assay metric: IC50

Q: Looking for the measured IC50 of "COc1cc2c(cc1OC(C)C)[C@H](c1ccc(Cl)cc1)N(c1ccc(N(C)C[C@H]3CC[C@H](N4CCNC(=O)C4)CC3)cc1)C(=O)C2" , can you help?
A: > 8 µM

###

system: cell lines from the Cancer Cell Line Encyclopedia (CCLE); experiment: High-throughput cell viability assay, CCLE cell line panel (n = 356); format: cell-based, human; conditions: Homo sapiens, WM 266-4, WM-266-4, TP53 WT
Assay metric: pIC50
# log scale: pIC50 equals minus log10 of the concentration in mol/L

Q: # get_value(readout='pIC50', item= "COc1cc2c(cc1OC(C)C)[C@H](c1ccc(Cl)cc1)N(c1ccc(N(C)C[C@H]3CC[C@H](N4CCNC(=O)C4)CC3)cc1)C(=O)C2" )
A: 5.84

###

tested on: cell lines from the Cancer Cell Line Encyclopedia (CCLE); experiment: High-throughput cell viability assay, CCLE cell line panel (n = 356); assay type: cell-based, human; conditions: Homo sapiens, MDA-MB-415, MDA-MB-415, TP53 MUT
Assay metric: pIC50
Reminder that pIC50 means the negative base-10 logarithm of the concentration expressed in mol/L.

Q: # lookup: pIC50 of "COc1cc2c(cc1OC(C)C)[C@H](c1ccc(Cl)cc1)N(c1ccc(N(C)C[C@H]3CC[C@H](N4CCNC(=O)C4)CC3)cc1)C(=O)C2"
A: 5.12

###

experiment: PK parameters in preclinical species; type: in vivo; conditions: in vivo, po; Monkey; 0.3 mg/kg p.o.
Assay metric: Tmax (h)
# output: bare number, implied unit h

COc1cc2c(cc1OC(C)C)[C@H](c1ccc(Cl)cc1)N(c1ccc(N(C)C[C@H]3CC[C@H](N4CCNC(=O)C4)CC3)cc1)C(=O)C2 = 1

Consider the additional molecule presented here.
Q: For the molecule "COc1cc2c(cc1OC(C)C)[C@H](c1ccc(Cl)cc1)N(c1ccc(N(C)C[C@H]3CC[C@H](N4CCN(C)C(=O)C4)CC3)cc1)C(=O)C2" , what Tmax is on record?
A: 1.3

###

tested on: cell lines from the Cancer Cell Line Encyclopedia (CCLE); experiment: High-throughput cell viability assay, CCLE cell line panel (n = 356); assay type: cell-based, human; settings: Homo sapiens, BICR 6, TP53 MUT
Assay metric: IC50

Q: Look up IC50 for this molecule: COc1cc2c(cc1OC(C)C)[C@H](c1ccc(Cl)cc1)N(c1ccc(N(C)C[C@H]3CC[C@H](N4CCNC(=O)C4)CC3)cc1)C(=O)C2 [NVP-CFC218]
A: > 8 µM

###

Tested on: Hs 294T
Assay: Repeat cell proliferation assay
Assay type: cell-based
Details: Homo sapiens, Hs 294T (TP53 mutated)
Excerpt: Cell lines were partitioned into sensitive and insensitive groups based on compound potency (IC50). […] Forty seven cell lines were categorized as sensitive and 309 cell lines as insensitive. For the sensitive cell lines, the maximal compound effect level (Amax) was ≤ −50% (Figure 1C,D, Figure 1—source data 1).
Assay metric: IC50

Q: Query for Hs 294T: what IC50 does the record show for "COc1cc2c(cc1OC(C)C)[C@H](c1ccc(Cl)cc1)N(c1ccc(N(C)C[C@H]3CC[C@H](N4CCNC(=O)C4)CC3)cc1)C(=O)C2" ?
A: > 8 µM

###

test system: cell lines from the Cancer Cell Line Encyclopedia (CCLE); experiment: High-throughput cell viability assay, CCLE cell line panel (n = 356); assay type: cell-based, human; settings: Homo sapiens, Calu-3, Calu-3, TP53 MUT
pIC50: −log10 of the molar value.
Assay metric: pIC50

Q: Reported pIC50, compound COc1cc2c(cc1OC(C)C)[C@H](c1ccc(Cl)cc1)N(c1ccc(N(C)C[C@H]3CC[C@H](N4CCNC(=O)C4)CC3)cc1)C(=O)C2 [NVP-CFC218] : ____
A: < 5.10

###

tested on: cell lines from the Cancer Cell Line Encyclopedia (CCLE); test: High-throughput cell viability assay, CCLE cell line panel (n = 356); assay type: cell-based, human; conditions: Homo sapiens, WM-115, WM-115, TP53 WT
Assay metric: pIC50
// scale note: pIC50 = -log10(conc_M); give the bare number

Q: Item under review: "COc1cc2c(cc1OC(C)C)[C@H](c1ccc(Cl)cc1)N(c1ccc(N(C)C[C@H]3CC[C@H](N4CCNC(=O)C4)CC3)cc1)C(=O)C2" . Reported pIC50?
A: 5.47

###

test system: cell lines from the Cancer Cell Line Encyclopedia (CCLE); assay: High-throughput cell viability assay, CCLE cell line panel (n = 356); type: cell-based, human; details: Homo sapiens, MFE-280, MFE-280, TP53 MUT
Assay metric: pIC50
Notebook: values listed as pIC50 are -log10 of the concentration (mol/L).

Q: Consider the compound shown here: COc1cc2c(cc1OC(C)C)[C@H](c1ccc(Cl)cc1)N(c1ccc(N(C)C[C@H]3CC[C@H](N4CCNC(=O)C4)CC3)cc1)C(=O)C2 [NVP-CFC218] What is its recorded pIC50?
A: 5.16

###

tested on: cell lines from the Cancer Cell Line Encyclopedia (CCLE); experiment: High-throughput cell viability assay, CCLE cell line panel (n = 356); type: cell-based, human; details: Homo sapiens, Hs 729, TP53 MUT
pIC50: −log10 of the molar value.
Assay metric: pIC50

Q: Suppose we examine the compound COc1cc2c(cc1OC(C)C)[C@H](c1ccc(Cl)cc1)N(c1ccc(N(C)C[C@H]3CC[C@H](N4CCNC(=O)C4)CC3)cc1)C(=O)C2 [NVP-CFC218] ; what pIC50 value has been reported?
A: < 5.10

###

Documented Tmax across a set of molecules
assay: PK parameters in preclinical species; format: in vivo; settings: in vivo, po; Dog; 0.3 mg/kg p.o.

COc1cc2c(cc1OC(C)C)[C@H](c1ccc(Cl)cc1)N(c1ccc(N(C)C[C@H]3CC[C@H](N4CCN(C)C(=O)C4)CC3)cc1)C(=O)C2 = 2.7 h

Q: Given "COc1cc2c(cc1OC(C)C)[C@H](c1ccc(Cl)cc1)N(c1ccc(N(C)C[C@H]3CC[C@H](N4CCNC(=O)C4)CC3)cc1)C(=O)C2" , state its recorded Tmax.
A: 3.3 h

###

assay: PK parameters in preclinical species; type: in vivo; details: in vivo, iv; Mouse; single dose 1 mg/kg i.v. or 3 mg/kg p.o.; read-out: Vss
Vd reference
# output: bare number, implied unit L/kg

COc1cc2c(cc1OC(C)C)[C@H](c1ccc(Cl)cc1)N(c1ccc(N(C)C[C@H]3CC[C@H](N4CCNC(=O)C4)CC3)cc1)C(=O)C2 = 3.1

Now look at this entry.
Q: GET /values?readout=Vd&item= "COc1cc2c(cc1OC(C)C)[C@H](c1ccc(Cl)cc1)N(c1ccc(N(C)C[C@H]3CC[C@H](N4CCN(C)C(=O)C4)CC3)cc1)C(=O)C2"
A: 2.6

###

tested on: cell lines from the Cancer Cell Line Encyclopedia (CCLE); assay: High-throughput cell viability assay, CCLE cell line panel (n = 356); format: cell-based, human; details: Homo sapiens, Hs-578T, Hs 578T, TP53 MUT
pIC50: −log10 of the molar value.
Assay metric: pIC50

Q: Reported pIC50, compound COc1cc2c(cc1OC(C)C)[C@H](c1ccc(Cl)cc1)N(c1ccc(N(C)C[C@H]3CC[C@H](N4CCNC(=O)C4)CC3)cc1)C(=O)C2 [NVP-CFC218] : ____
A: < 5.10
